All figures here come from ChEMBL document CHEMBL1149817.

System: L6
experiment.summary: Cytotoxicity against rat L6 cells
Assay type: cell-based
details: Rattus norvegicus, L6
pIC50: −log10 of the molar value.
# cutoff 5 applies to pIC50; >= gives Satisfied, < gives Not satisfied

*Q* Hi, just wondering whether CN(C)C12CC(OC(=O)c3ccccc3)C(C(c3ccccc3)C1)C(c1ccccc1)C2 (racemic) shows pIC50 of 5 or higher.
*A* Satisfied

*Q* Could you tell me if the measured pIC50 of OC1CC2(N3CCCC3)CC(c3ccccc3)C1C(c1ccccc1)C2 (racemic) reaches 5 or more?
*A* Not satisfied

*Q* Please indicate if the recorded pIC50 for O=C(OC1CC2(N3CCCC3)CC(c3ccccc3)C1C(c1ccccc1)C2)c1cccnc1 (racemic) meets or exceeds 5.
*A* Not satisfied

*Q* Kindly determine if pIC50 recorded for OC1CC2(N3CCCCC3)CC(c3ccccc3)C1C(c1ccccc1)C2 (racemic) is above or exactly 5.
*A* Not satisfied

*Q* Entry O=C(OC1CC2(N3CCCC3)CC(c3ccccc3)C1C(c1ccccc1)C2)c1ccncc1 (racemic; 11b) : is its pIC50 no less than 5?
*A* Not satisfied
